system: CHO; experiment: The sensitizing capacity for colchicine treatment of parental (PAR)CHO cells at concentration 1.0 (mg/L); assay type: functional, Cricetulus griseus
Non-standard residues stand in square brackets, D forms with d. Residues, ends and D or L forms follow the SMILES beside them. *: point of attachment. NMeI = CC[C@H](C)[C@H](NC)C(=O)O; NMeD = CN[C@@H](CC(=O)O)C(=O)O; NMeV = CN[C@H](C(=O)O)C(C)C; Pip = O=C(O)[C@@H]1CCCCN1; dLac = C[C@@H](O)C(=O)O; OtBu = CC(C)(C)O*
Consider the following compounds; for each one, report its Activity.
Numbers only.

// batch mode: one Activity value per listed entry
1. CC[C@@H](C)[C@H]1C(=O)NCC(=O)N(C)[C@@H](C(C)C)C(=O)N[C@@H](Cc2ccc(OCc3ccccc3)cc2)C(=O)O[C@H](C)C(=O)N2CCCC[C@H]2C(=O)N(C)[C@@H](C(C)C)C(=O)N[C@@H](C(C)C)C(=O)N(C)[C@H](CC(=O)O)C(=O)N(C)[C@@H]([C@@H](C)CC)C(=O)N1C
2. CC[C@H](C)[C@H]1C(=O)NCC(=O)N(C)[C@@H](C(C)C)C(=O)N[C@@H](Cc2ccc(OC)cc2)C(=O)O[C@H](C)C(=O)N2CCCC[C@H]2C(=O)N(C)[C@@H](C(C)C)C(=O)N[C@@H](C(C)C)C(=O)N(C)[C@@H](CC(=O)OC(C)(C)C)C(=O)N(C)[C@@H]([C@@H](C)CC)C(=O)N1C (cyclo(G[NMeV]Y(Me)[dLac][Pip][NMeV]V[NMeD](OtBu)[NMeI][NMeI]))
3. CC[C@H](C)[C@H]1C(=O)NCC(=O)N(C)[C@@H](C(C)C)C(=O)N[C@@H](Cc2ccc(O)cc2)C(=O)O[C@H](C)C(=O)N2CCCC[C@H]2C(=O)N(C)[C@@H](C(C)C)C(=O)N[C@@H](C(C)C)C(=O)N(C)[C@@H](CC(=O)OC(C)(C)C)C(=O)N(C)[C@@H]([C@@H](C)CC)C(=O)N1C
4. CC[C@H](C)[C@H]1C(=O)NCC(=O)N(C)[C@@H](C(C)C)C(=O)N[C@@H](Cc2ccc(OC)cc2)C(=O)O[C@H](C)C(=O)N2CCCC[C@H]2C(=O)N(C)[C@@H](C(C)C)C(=O)N[C@@H](C(C)C)C(=O)N(C)[C@@H](CC(=O)NC[Si](C)(C)C)C(=O)N(C)[C@@H]([C@@H](C)CC)C(=O)N1C
5. CC[C@@H](C)[C@H]1C(=O)NCC(=O)N(C)[C@@H](C(C)C)C(=O)N[C@@H](Cc2ccc(OC)cc2)C(=O)N[C@@H](C)C(=O)N2CCCC[C@H]2C(=O)N(C)[C@@H](C(C)C)C(=O)N[C@@H](C(C)C)C(=O)N(C)[C@H](CC(=O)OC(C)(C)C)C(=O)N(C)[C@@H]([C@@H](C)CC)C(=O)N1C
6. CC[C@@H](C)[C@H]1C(=O)NCC(=O)N(C)[C@@H](C(C)C)C(=O)N[C@@H](Cc2ccc(OC)cc2)C(=O)O[C@H](C)C(=O)N2CCCC[C@H]2C(=O)N(C)[C@@H](C(C)C)C(=O)N[C@@H](C(C)C)C(=O)N(C)[C@H](CC(=O)O)C(=O)N(C)[C@@H]([C@@H](C)CC)C(=O)N1C
7. CC[C@@H](C)[C@H]1C(=O)N(C)CC(=O)N(C)[C@@H](C(C)C)C(=O)N(C)[C@@H](Cc2ccc(OC)cc2)C(=O)O[C@H](C)C(=O)N2CCCC[C@H]2C(=O)N(C)[C@@H](C(C)C)C(=O)N(C)[C@@H](C(C)C)C(=O)N(C)[C@H](CC(=O)OC)C(=O)N(C)[C@@H]([C@@H](C)CC)C(=O)N1C

Output line:
3.9
8.6
14
11
6.2
7.6
4.6
